Molecular target: human ether-à-go-go-related gene (hERG) potassium channel (human, UniProt Q12809);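 also: peak tail current of the secondary pulse compared with the same well before compound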
Sequence (Q12809 whole entry, looked up): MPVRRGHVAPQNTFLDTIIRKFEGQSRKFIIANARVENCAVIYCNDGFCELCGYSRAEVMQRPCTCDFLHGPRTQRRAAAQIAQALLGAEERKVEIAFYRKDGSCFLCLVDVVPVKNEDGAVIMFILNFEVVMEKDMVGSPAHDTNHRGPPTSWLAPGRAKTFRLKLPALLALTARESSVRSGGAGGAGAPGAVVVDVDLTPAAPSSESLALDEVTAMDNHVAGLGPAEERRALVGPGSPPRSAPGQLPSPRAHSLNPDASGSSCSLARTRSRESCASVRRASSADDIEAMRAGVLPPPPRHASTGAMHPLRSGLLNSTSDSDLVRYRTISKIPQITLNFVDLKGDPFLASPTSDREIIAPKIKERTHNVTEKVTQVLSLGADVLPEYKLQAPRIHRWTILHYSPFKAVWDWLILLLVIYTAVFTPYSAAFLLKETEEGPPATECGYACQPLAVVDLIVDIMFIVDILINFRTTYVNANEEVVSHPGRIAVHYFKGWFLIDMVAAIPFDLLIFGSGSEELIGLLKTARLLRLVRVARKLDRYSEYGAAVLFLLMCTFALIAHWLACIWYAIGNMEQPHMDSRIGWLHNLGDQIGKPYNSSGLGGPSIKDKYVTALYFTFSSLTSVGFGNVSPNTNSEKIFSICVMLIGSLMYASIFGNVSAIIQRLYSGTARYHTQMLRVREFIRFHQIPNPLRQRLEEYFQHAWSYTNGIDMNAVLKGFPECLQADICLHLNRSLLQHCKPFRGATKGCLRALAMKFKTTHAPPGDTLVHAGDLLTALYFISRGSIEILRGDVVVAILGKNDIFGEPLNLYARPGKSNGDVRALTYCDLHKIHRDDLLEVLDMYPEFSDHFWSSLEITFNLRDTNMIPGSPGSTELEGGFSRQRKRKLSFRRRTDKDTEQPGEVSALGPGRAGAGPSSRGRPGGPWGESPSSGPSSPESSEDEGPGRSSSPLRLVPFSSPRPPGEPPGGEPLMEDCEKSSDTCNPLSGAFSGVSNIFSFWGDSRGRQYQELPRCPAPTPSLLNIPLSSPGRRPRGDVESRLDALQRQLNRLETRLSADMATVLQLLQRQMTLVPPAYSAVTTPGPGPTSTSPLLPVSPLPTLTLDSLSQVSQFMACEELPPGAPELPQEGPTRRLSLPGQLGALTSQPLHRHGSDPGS
Assay: primary screen, population patch clamp on CHO cells stably expressing hERG; higher = less effect of the substance
The whole screen tested about 310,000 compounds, of which about 14,000 (4.5%) showed an effect of 50% or more. Effects have a minus sign here. This excerpt belongs to a sample that is enriched for strong results.
In this section, each of the molecules is paired with its reported hERG current change (%, negative = inhibition) at 10uM.

CCC(C)n1c(=S)[nH]c2ccccc2c1=O (stereo not drawn)    -0.621%
N=c1c(C(=O)NCc2ccc3c(c2)OCO3)cc2c(=O)n3ccccc3nc2n1Cc1cccnc1    -80.4%
Cc1cc(CN(C)C(=O)c2ccc3nc(Cc4ccccc4F)oc3c2)on1    -5.71%
O=C(NCc1ccc2c(c1)OCO2)c1cnc2ccccn2c1=O    -6.29%
CCOC(=O)c1cc2c(=O)n3ccccc3nc2n(Cc2ccccc2)c1=N    -74.6%

Query (molecule): COc1ccc(CNC(=O)c2cc3c(=O)n4ccccc4nc3n(Cc3cccnc3)c2=N)cc1 ; field requested: hERG current change (%, negative = inhibition) at 10uM
-58.6%

Item COc1ccc(Cn2c(=S)[nH]c3cc(C(=O)NCc4cccnc4)ccc3c2=O)cc1 has what recorded hERG current change (%, negative = inhibition) at 10uM?
12.3%

// hERG current change (%, negative = inhibition) at 10uM lookup, key: COc1ccc(/C=C/C(=O)OCC(=O)Nc2cc(C(N)=O)cc(C(N)=O)c2)cc1
18.2%

Endpoint output: hERG current change (%, negative = inhibition) at 10uM of COCCCn1c(=N)c(C(=O)NCc2ccc3c(c2)OCO3)cc2c(=O)n3ccccc3nc21 . Value?
-83.5%

----------
Target: human ether-à-go-go-related gene (hERG) potassium channel (human, UniProt Q12809);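 also: peak tail current of the secondary pulse compared with the same well before compound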
Test: primary screen, population patch clamp on CHO cells stably expressing hERG; higher = less effect of the substance
The campaign covered roughly 310,000 compounds. About 14,000 (4.5%) showed an effect of 50% or more. Effects have a minus sign here. This excerpt belongs to a sample that is enriched for strong results.
Param threshold (-20%) applies to hERG current change (%, negative = inhibition) at 10uM; output met when value >= threshold, not met when value < threshold.

Identify whether the reported hERG current change (%, negative = inhibition) at 10uM of the following compound is -20% or greater: Cc1cc(C)cc(C(=O)N2CCN=C2SCc2ccc([N+](=O)[O-])cc2)c1
not met

Quick check: does O=C(c1ccccc1)N1CCN=C1SCc1ccc([N+](=O)[O-])cc1 have hERG current change (%, negative = inhibition) at 10uM greater than or equal to -20%?
not met

Determine whether this compound has hERG current change (%, negative = inhibition) at 10uM no lower than -20%: Cc1c(C(=O)Nc2c(C)n(C)n(-c3ccccc3)c2=O)oc2ccc(Cl)cc12
not met

Please tell me: is the compound Cc1ccsc1CNn1cnnc1SCc1ccc(Cl)cc1 at or over -20% in terms of hERG current change (%, negative = inhibition) at 10uM?
met

Please indicate if the recorded hERG current change (%, negative = inhibition) at 10uM for Cc1ccc(CNC(=O)c2ccc(Cn3nc(C)cc3C)o2)cc1 meets or exceeds -20%.
met

Hi, just wondering whether CC[n+]1c(/C=C/C=C/c2ccc(N(C)C)cc2)sc2ccccc21.[O-][Cl+3]([O-])([O-])[O-] shows hERG current change (%, negative = inhibition) at 10uM of -20% or higher.
not met

Form field: hERG current change (%, negative = inhibition) at 10uM at least -20%? Entry: Cc1ccc(C(=O)NCCC(=O)NCc2ccco2)cc1
met

Could you tell me if the measured hERG current change (%, negative = inhibition) at 10uM of CCN1C(=NCCc2cccnc2)N[C@@H](c2ccccc2)C(C(=O)OC)=C1C reaches -20% or more?
not met

Test whether the compound CCN1C(=O)N[C@@H](c2cccs2)C(C(=O)OC)=C1C records hERG current change (%, negative = inhibition) at 10uM of -20% or higher.
met

Does the compound COc1ccc(-n2cnc3cc(NS(=O)(=O)c4ccccc4)ccc32)cc1 have recorded hERG current change (%, negative = inhibition) at 10uM that is -20% or more?
met

Does hERG current change (%, negative = inhibition) at 10uM meet or surpass -20% for O=C(CN1CCN(S(=O)(=O)c2ccc(Cl)cc2)CC1)Nc1ccc2c(c1)OCO2 ?
not met

Please indicate if the recorded hERG current change (%, negative = inhibition) at 10uM for Cc1cc(C)c2c(C)c(C(=O)Nc3c(C)n(C)n(-c4ccccc4)c3=O)oc2c1 meets or exceeds -20%.
met

Can C=CCN=C1N[C@@H](c2ccccc2)C(C(=O)OC)=C(C)N1CC be said to have hERG current change (%, negative = inhibition) at 10uM at or above -20%?
met

Is hERG current change (%, negative = inhibition) at 10uM at least -20%? Consider Cc1ccccc1C(=O)NC(=S)NCCC1=CCCCC1
met

Would you say O=[N+]([O-])c1ccc(S(=O)(=O)N2CCN=C2SCc2cccnc2)cc1 shows hERG current change (%, negative = inhibition) at 10uM at minimum -20%?
not met

Confirm if hERG current change (%, negative = inhibition) at 10uM reported for the compound COc1ccccc1-n1cnc2cc(NS(=O)(=O)c3ccccc3)ccc21 is -20% or above.
not met

Identify whether the reported hERG current change (%, negative = inhibition) at 10uM of the following compound is -20% or greater: CCN1C(=O)N[C@@H](c2ccccc2)C(C(=O)OC)=C1C
met

Hi, just wondering whether COC(=O)C1=C(C)N(Cc2ccccc2)C(=NCc2cc(OC)c(OC)c(OC)c2)N[C@H]1c1ccccc1 shows hERG current change (%, negative = inhibition) at 10uM of -20% or higher.
not met

Is it the case that CC(C)CCNC(=O)c1ccc2c(c1)ncn2C1CCCCC1 has hERG current change (%, negative = inhibition) at 10uM reaching or exceeding -20%?
not met

Entry Cc1ccc(SCc2ccc(C(=O)N3CCCCC3)cc2)cc1 : is its hERG current change (%, negative = inhibition) at 10uM no less than -20%?
met
